- Tested on: MCF10A
- TEST_SUMMARY: percent viability (nuclei count relative to siNT); higher = more viable cells
- SETUP_CONDITIONS: 20 nM; 72 h
MEASURED_METRIC: percent viability (%)
Numbers only, in %.

GUGAGUGGGAGCCCCAGUGUGUG [hsa-miR-1238-5p]
95.1
UUGCACUCUGGCCUUCUCCCAGG [hsa-miR-7703]
25
CCUGAGAAAAGGGCCAA [hsa-miR-4251]
31.3
ACCUGGCAUACAAUGUAGAUUU [hsa-miR-221-5p]
36
UGCUGGGGGCCACAUGAGUGUG [hsa-miR-4731-5p]
20.7

Lab note: next sequence to report on.
Bench note: what percent viability did UCCAUUACACUACCCUGCCUCU [hsa-miR-885-5p] show?
71.4

---

- Test system: MCF10A
- TEST_SUMMARY: 5+ nucleoli phenotype percent effect (relative to siNT 0% and siKIF11 100%); higher = more cells with five or more nucleoli
- SETUP_CONDITIONS: 20 nM; 72 h
Could you please report measured 5+ nucleoli phenotype percent effect for the items listed next?
Give bare numbers, in %.

Past entries and their recorded results:
CUGCGCAAGCUACUGCCUUGCU [hsa-let-7i-3p]
0.0505
GUGAGGAGGGGCUGGCAGGGAC [hsa-miR-6858-5p]
7.04
CGUGGAUAUUCCUUCUAUGUUU [hsa-miR-376b-5p]
-14
UUGGGGGUGAGGUUGGUGUCUGG [hsa-miR-6751-5p]
-13.1
UGCAGCUCUGGUGGAAAAUGGAG [hsa-miR-4660]
-12.2

Provide each entry's 5+ nucleoli phenotype percent effect from the list below.
1. CCGCCUUCUCUCCUCCCCCAG [hsa-miR-6880-3p]
2. ACUCUUUCCCUGUUGCACUAC [hsa-miR-130b-5p]
3. AAAAGUAAUUGCGGUCUUUGGU [hsa-miR-548j]
4. AGGCCAUCAGCAGUCCAAUGAA [hsa-miR-4529-5p]
5. GUGUUCUCUGAUGGACAG [hsa-miR-4273]

65.6
16.1
17
9.36
10.3

---

- Test system: MCF10A
- TEST_SUMMARY: one-nucleolus phenotype percent effect (relative to siNT 0% and siNOL11 100%); higher = more cells with one nucleolus (ribosome biogenesis inhibition)
- SETUP_CONDITIONS: 20 nM; 72 h
Each entry falls in a class defined on one-nucleolus phenotype percent effect; the bands are interval 1 = under -10%, interval 2 = from -10% up to 20%, interval 3 = 20% and over

Answered examples (3):
AAAAGUGCUUACAGUGCAGGUAG [hsa-miR-106a-5p]
interval 1
UGCCCUGCCUGUUUUCUCCUUU [hsa-miR-3173-5p]
interval 1
CCAUGGAUCUCCAGGUGGGU [hsa-miR-490-5p]
interval 2

# bin label for GAAGAUGGUGCUGUGCUGAGGAA [hsa-miR-4647]
interval 3

# bin label for UGAGUGAUUGAUAGCUAUGUUC [hsa-miR-4765]
interval 1

# bin label for UCUAGAGGAAGCACUUUCUGUUU [hsa-miR-520g-5p]
interval 1

# bin label for GAGCCAGUUGGACAGGAGC [hsa-miR-575]
interval 1

# bin label for UGAUGGAGCUGGGAAUACUCUG [hsa-miR-8082]
interval 3

# bin label for CUCGGCGCGGGGCGCGGGCUCC [hsa-miR-1469]
interval 3

# bin label for GCCCUGAACGAGGGGUCUGGAG [hsa-miR-345-3p]
interval 1

# bin label for AUACCCAUAGCUUAGCUCCCA [hsa-miR-5591-3p]
interval 3

# bin label for UCUAGGCUGGUACUGCUGA [hsa-miR-645]
interval 1

# bin label for UGGGGUGCCCACUCCGCAAGUU [hsa-miR-4664-5p]
interval 3

# bin label for GAAGGCGCUUCCCUUUAGAGCG [hsa-miR-525-3p]
interval 3

# bin label for AUCAUAUGAACCAAACUCUAAU [hsa-miR-5007-3p]
interval 1

Origin of measurements: the supplement of paper PMC10899765
